property-label: IC50

Enter recorded IC50 with cAMP-specific 3',5'-cyclic phosphodiesterase 4D (Homo sapiens, UniProt Q08499) for COc1ccc(-c2nc(CCC(=O)c3ncccc3OC)co2)cc1OCC1CC1 here.
Sequence (Q08499 whole entry): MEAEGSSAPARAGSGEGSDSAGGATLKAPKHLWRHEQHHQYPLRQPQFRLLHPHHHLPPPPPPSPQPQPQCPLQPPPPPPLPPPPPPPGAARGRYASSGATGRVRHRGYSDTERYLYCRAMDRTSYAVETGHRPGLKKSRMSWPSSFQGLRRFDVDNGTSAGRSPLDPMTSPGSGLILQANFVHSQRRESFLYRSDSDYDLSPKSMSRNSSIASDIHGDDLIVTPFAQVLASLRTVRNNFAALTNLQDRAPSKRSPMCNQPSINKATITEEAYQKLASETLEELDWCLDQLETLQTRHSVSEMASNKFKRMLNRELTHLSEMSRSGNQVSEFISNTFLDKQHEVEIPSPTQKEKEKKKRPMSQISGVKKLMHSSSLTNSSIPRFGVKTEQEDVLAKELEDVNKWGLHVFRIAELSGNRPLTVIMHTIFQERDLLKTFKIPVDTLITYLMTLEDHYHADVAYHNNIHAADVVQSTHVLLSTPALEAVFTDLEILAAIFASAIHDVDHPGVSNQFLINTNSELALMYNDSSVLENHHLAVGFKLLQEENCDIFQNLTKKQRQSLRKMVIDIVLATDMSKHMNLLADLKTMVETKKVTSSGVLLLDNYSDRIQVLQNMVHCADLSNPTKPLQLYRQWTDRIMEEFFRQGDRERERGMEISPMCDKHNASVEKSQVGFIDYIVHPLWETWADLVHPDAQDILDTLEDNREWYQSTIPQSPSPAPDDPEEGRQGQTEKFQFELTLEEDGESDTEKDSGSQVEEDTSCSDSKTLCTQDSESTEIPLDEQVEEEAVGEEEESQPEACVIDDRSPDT
< 50 nM
